Test system: Danio rerio Tg(wt1b:EGFP) embryo, pronephros
Assay protocol: fraction of imaged embryos annotated as normal kidney; higher = less nephrotoxic; extreme values may be limits of the assay
Condition info: 25 µM; exposure: 24-48 hpf
Counter-ions that a name gives are not always drawn.
Measure name: fraction of imaged embryos annotated as normal kidney

IN: Report fraction of imaged embryos annotated as normal kidney for NC(=O)c1ccc[n+]([C@@H]2O[C@H](COP(=O)([O-])OP(=O)(O)OC[C@H]3O[C@@H](n4cnc5c(N)ncnc54)[C@H](O)[C@@H]3O)[C@@H](O)[C@H]2O)c1 [Nadide]
OUT: 0.75

IN: Report fraction of imaged embryos annotated as normal kidney for NCCCC(O)(P(=O)(O)O)P(=O)(O)O [Alendronate sodium]
OUT: 0.833

IN: Report fraction of imaged embryos annotated as normal kidney for COc1cccc(N(C)C(=S)Oc2ccc3c(c2)CCCC3)n1 [Liranaftate]
OUT: 0.667

Would you kindly look at the next entry?
IN: Report fraction of imaged embryos annotated as normal kidney for NCCc1c[nH]cn1 [Histamine dihydrochloride]
OUT: 0.833
